Entry source: PubChem BioAssay (NCI)

System: MDA-MB-435
Experiment: NCI tumour cell line growth inhibition, 48 h
QUANTITY: TGI

• C[C@@H](CN1CC(=O)NC(=O)C1)N1CC(=O)NC(=O)C1 = 1470 µM
• CCCCOC(=O)NC(Nc1cccc(C(F)(F)F)c1)(C(F)(F)F)C(F)(F)F = > 100 µM
• CCCCSC1=N/C(=C\c2ccc(N(C)C)cc2)C(NN)=N1 = > 100 µM
• O=C1O[C@H]2[C@H](O)[C@@H](OC(=O)c3cc(O)c(O)c4c3[C@@H]3C1=CC(=O)C(O)(O)C3(O)O4)[C@H](OC(=O)c1cc(O)c(O)c(O)c1)O[C@@H]2CO (stereo partly drawn) = > 100 µM

Data request, read-out TGI, for CCN(CC)CCCC(C)Nc1nc(C)cc(Nc2ccc3nc(C)cc(N)c3c2)n1 (stereo not drawn) 29.5 µM

Data request, read-out TGI, for Cc1cc(C)c2c(c1)CC1(Cc3c(C)ccc(C)c3C1=O)C2=O (stereo not drawn) > 100 µM

Data request, read-out TGI, for "COC(=O)c1c(O)c([N+](=O)[O-])cc2c1c1c(n2Cc2ccccc2)C(=O)c2ccccc2C1=O" 28 µM

Data request, read-out TGI, for "C/C(=N\Nc1nc2ccccc2n1C)c1cnccn1" > 100 µM

====

Test system: UACC-257 melanoma
Experiment: NCI tumour cell line growth inhibition, 48 h
Here, each record is paired with measured TGI data.

Use these answered entries as a reference point.
- Cc1[nH]c2ccccc2c1-c1cc(-c2cc(-c3c(C)[nH]c4ccccc34)nc(N)n2)nc(N)n1: > 100 µM
- CC(=O)Oc1cc2c(c3ncccc13)OC(C)(C)C2: 29.5 µM
- CC(C)(C)NC(=O)NC12CC3CC(CC(F)(C3)C1)C2: > 100 µM

Data request, read-out TGI, for "O=C(Nc1c(C(F)(F)F)cc(-c2ccccc2)[nH]c1=O)N1CCOCC1" > 100 µM

Data request, read-out TGI, for "CC1(C)CC23CC(C)(C)c4cccc(c42)OCc2ccc4ccc5ccc(nc5c4n2)COc2cccc1c23" > 50 µM

Data request, read-out TGI, for "Cc1c2c(n(CCc3ccccc3)c1C)N(C)N=C(C#N)S2(=O)=O" > 100 µM

Data request, read-out TGI, for CC(C)C1CC2C(=O)N(c3ccccc3)C(=O)C2c2[nH]c3ccccc3c21 (stereo not given) > 100 µM

Data request, read-out TGI, for "O=C(Cc1csc(-c2nc(CC(=O)NNc3ccccc3)cs2)n1)NNc1ccccc1" > 100 µM

Data request, read-out TGI, for "Cc1nc2c(nc1C)-c1c(c3c(n1C)C(=O)CCC3)C(=O)C2=O" 2.76 µM

Data request, read-out TGI, for "COc1cc(C(=O)O[C@@H]2[C@@H](OC(=O)c3cc(OC)c(OC)c(OC)c3)[C@@H](OC)O[C@@H]3CO[C@@H](c4ccccc4)O[C@@H]23)cc(OC)c1OC" > 100 µM

Data request, read-out TGI, for "CC(=O)O[C@@H]1[C@@H](O)C2=C3[C@]4(C)[C@@H]1C(C)(C)C(=O)C[C@@H]4[C@]3(O)[C@H](OC(C)=O)[C@@]1(C[C@@H]1C)C2=O" 37.2 µM

Data request, read-out TGI, for "CCOC(=O)c1sc(N/N=C2\NC(=O)/C(=C/c3ccc([N+](=O)[O-])cc3)S2)nc1C" 42.1 µM

Data request, read-out TGI, for "CC(=O)Oc1ccc2c(c1)oc1c3ccc(OC(C)=O)cc3n(C)c(=O)c21" > 100 µM

Data request, read-out TGI, for "O=C1CC(=O)NC(=NN2C(=O)/C(=C/c3ccccc3)N=C2c2ccccc2)N1" > 100 µM

Data request, read-out TGI, for "COc1ccc(N/N=C(\CCN(C)C)c2ccccc2)cc1" 16.4 µM
